In this section we review reported surface tension liquid-gas values for a set of molecules.
conditions: 298.15 K, Drop volume

{"molecule": "CCOC(C)=O [ethyl acetate]", "surface tension liquid-gas [mN/m]": 23.93}
{"molecule": "O", "surface tension liquid-gas [mN/m]": 71.57}
{"molecule": "CCCOC(C)=O [propyl ethanoate]", "surface tension liquid-gas [mN/m]": 24.22}
{"molecule": "COC(C)=O [methyl ethanoate]", "surface tension liquid-gas [mN/m]": 24.79}
